# Tested on: A498 cells
# assay procedure: MTT colorimetry, tumor cell growth/viability
# Assay type: cell-based, human
# experimental context: Homo sapiens, A498, 72 h, A498, MTT, 72 h
pIC50: −log10 of the molar value.
readout: pIC50

[ask] Find the measured pIC50 of O=C1CN2Cc3c(ccc(Cl)c3Cl)N=C2N1 [Anagrelide] and report it.
[reply] > 7.00
